TGI listing for selected compounds.
system: SN12C renal; assay: NCI tumour cell line growth inhibition, 48 h

Solved entries (count: 5):
OC(c1ccoc1)c1cc2ccccc2s1 (stereo not given); > 10 µM
CN(C)/C=C1\CCc2ccc([N+](=O)[O-])cc2C1=O; 40.4 µM
CN(C)C1C(=O)C(C(=O)NCN2CCCC2)=C(O)C2(O)C(=O)C3=C(O)c4c(O)cccc4C(C)(O)C3CC12 (stereo not given); > 100 µM
CCC1(c2ccc(N3C(=O)c4ccccc4C3=O)cc2)CCC(=O)NC1=O (stereo not given); > 10 µM
O=C(c1nc2ccc(Cl)cc2[nH]c1=O)C(O)c1ccccc1 (stereo not given); > 100 µM

// TGI lookup, compound = COc1cc2c(cc1OC)C1[C@@H](c3ccccc3)OCN1CC2 (stereo not given in full) , result: > 100 µM

// TGI lookup, compound = Cc1ccc(O)c(C(c2ccc(C(c3cc(C)ccc3O)c3cc(C)ccc3O)cc2)c2cc(C)ccc2O)c1 , result: 3.1 µM

// TGI lookup, compound = Cn1ncc(NC(=O)c2nc(-c3c(F)cccc3F)sc2N)c1N1CC[C@@H](N)[C@H](F)CC1 , result: 43.3 µM

// TGI lookup, compound = Cc1c2c(cc3c1[nH]c1ccccc13)C(c1ccc(Cl)cc1)=NCC2 , result: 3.46 µM

// TGI lookup, compound = CCOC(=O)C(/C=N\C(=S)Nc1c(CC)cccc1C(C)(C)C)=C(/O)c1ccccc1 , result: > 100 µM
